# target desc: T1, Taq DNA polymerase (Thermus aquaticus, UniProt P19821 1-832)
# T1 construct: also called Taq enzyme; Taq DNA enzyme
# T1 sequence (P19821 whole entry): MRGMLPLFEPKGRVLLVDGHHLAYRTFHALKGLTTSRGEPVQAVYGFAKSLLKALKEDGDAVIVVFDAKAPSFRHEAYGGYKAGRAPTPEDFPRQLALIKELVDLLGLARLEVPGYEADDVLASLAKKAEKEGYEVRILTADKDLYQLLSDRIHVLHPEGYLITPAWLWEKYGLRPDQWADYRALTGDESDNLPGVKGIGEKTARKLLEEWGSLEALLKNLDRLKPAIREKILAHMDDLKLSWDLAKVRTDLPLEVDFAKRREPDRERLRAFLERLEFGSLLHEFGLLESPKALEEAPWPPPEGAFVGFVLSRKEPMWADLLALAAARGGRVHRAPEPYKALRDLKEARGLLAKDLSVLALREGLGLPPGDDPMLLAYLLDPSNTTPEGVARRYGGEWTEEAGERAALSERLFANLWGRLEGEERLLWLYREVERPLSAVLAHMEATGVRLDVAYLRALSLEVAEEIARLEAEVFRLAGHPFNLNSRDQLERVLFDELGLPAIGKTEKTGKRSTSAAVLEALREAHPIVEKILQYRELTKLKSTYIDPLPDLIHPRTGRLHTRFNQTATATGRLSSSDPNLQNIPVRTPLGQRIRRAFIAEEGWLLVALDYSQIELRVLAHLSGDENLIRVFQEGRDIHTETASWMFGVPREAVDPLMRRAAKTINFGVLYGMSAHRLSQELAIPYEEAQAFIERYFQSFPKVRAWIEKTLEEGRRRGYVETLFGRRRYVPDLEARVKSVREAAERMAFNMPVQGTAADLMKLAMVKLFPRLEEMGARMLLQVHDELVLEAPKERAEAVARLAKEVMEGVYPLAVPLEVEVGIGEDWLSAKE
# method summary: AMC sensor, antibody immobilised
parameter: kon (M⁻¹ s⁻¹)
Respond with the bare value in M⁻¹ s⁻¹.

Solved entries:
- Mutation 1-28 (antibody, V domains shown, Mutation 1 background; CDRs built; also called Mutation 148) VH: QVQLQQPGAELVKPGASVRLSCQTSVDTFSTYYIYWVKQRPGEGLEWIGGINPTSNPVFNEKFKSKATLTVDTSSSTAYMQLSSLTSVDSAVYYCTRSIVRRGYYFDYWGQGTALTVSS VL: DIQMTQTTSSLSASLGDRVTISCRASQDIQNYINWYQQKPDGTIKLLIYYTSRLHSGIPSRFSGSGSGTDYSLTIANLEQEDIATYFCQQDDTIPITFGAGTKVELKR: 65000
- Mutation 1-40 (antibody, V domains shown, Mutation 1 background; CDRs built) VH: QVQLQQPGAELVKPGASVRLSCQTSVDTFSTYYIYWVKQRPGEGLEWIGGLNPTSGGPVFNEKFKSKATLTVDTSSSTAYMQLSSLTSVDSAVYYCTRSVVRRGYYFDYWGQGTALTVSS VL: DIQMTQTTSSLSASLGDRVTISCRASQDIQNYINWYQQKPDGTIKLLIYYTSRLHSGVPSRFSGSGSGTDYSLTIANLEQEDIATYFCQQDDTVPITFGAGTKVELKR: 76400
- Mutation 1-37 (antibody, V domains shown, Mutation 1 background; CDRs built) VH: QVQLQQPGAELVKPGASVRLSCQTSVETFTTYYIYWVKQRPGEGLEWIGGLNPTSNPVFNEKFKSKATLTVDTSSSTAYMQLSSLTSVDSAVYYCTRSIVRRGYYFDYWGQGTALTVSS VL: DIQMTQTTSSLSASLGDRVTISCRASQDINNYVNWYQQKPDGTIKLLIYYTSRLHSGIPSRFSGSGSGTDYSLTIANLEQEDIATYFCQQDDTIPITFGAGTKVELKR: 70200
- Mutation 1-38 (antibody, V domains shown, Mutation 1 background; CDRs built) VH: QVQLQQPGAELVKPGASVRLSCQTSVNTFSTYYIYWVKQRPGEGLEWIGGVNPTSGGPVFNEKFKSKATLTVDTSSSTAYMQLSSLTSVDSAVYYCTRSIIRRGYYFDYWGQGTALTVSS VL: DIQMTQTTSSLSASLGDRVTISCRASQDIQNYLNWYQQKPDGTIKLLIYYTSRLNSGIPSRFSGSGSGTDYSLTIANLEQEDIATYFCQQDDTIPLTFGAGTKVELKR: 31400

Supply kon value. Item: Mutation 1-18 (antibody, V domains shown, Mutation 1 background; CDRs built) VH: QVQLQQPGAELVKPGASVRLSCQTSVDTFTTYYIYWVKQRPGEGLEWIGGVNPTSNPVFNEKFKSKATLTVDTSSSTAYMQLSSLTSVDSAVYYCTRSILRRGYYFDYWGQGTALTVSS VL: DIQMTQTTSSLSASLGDRVTISCRASQDIQNYVNWYQQKPDGTIKLLIYYTSRLQSGIPSRFSGSGSGTDYSLTIANLEQEDIATYFCQQDDTIPVTFGAGTKVELKR
66400
